// GFP response relative to DMSO lookup, one value per entry
Assay Name: LAP4-GFP expression modulators in yeast, confirmation, cell-based, cherry picks, flow cytometry, mother/daughter gates (AID 2271);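 note: ratio of sample to DMSO plate mean so 100% equals DMSO level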
Experimental Parameters: S. cerevisiae LAP4-GFP strain, 3 h, measured here: mother cell gate response, at 10 µM, stronger effect = higher value, 100 means same as DMSO control
Write it as a number; the unit % goes unstated.

COc1ccc(CC2=CC(=O)c3ccccc3C2=O)cc1
102
Cc1c(N2C(=O)/C(=C\c3ccccc3O)SC2=S)c(=O)n(-c2ccccc2)n1C
137
O=C(COc1ccccc1)NNC(=S)NC(=O)c1ccccc1
166
CN(Cc1ccccc1)S(=O)(=O)c1ccc(C(=O)Nc2nnc(C3CC3)o2)cc1
97.3
NC(=O)c1ccccc1OCC(=O)c1ccc(Cl)cc1
97.4

Query: What measured GFP response relative to DMSO goes with Cc1cccc2nc(-c3cccnc3)c(NCCC(C)C)n12 ?
Result: 92.1

Query: What measured GFP response relative to DMSO goes with COCC(=O)Nc1cc([N+](=O)[O-])ccc1C ?
Result: 99.5

Query: What measured GFP response relative to DMSO goes with N#Cc1cc([N+](=O)[O-])c(-n2nnc3ccccc32)c([N+](=O)[O-])c1 ?
Result: 184

Query: What measured GFP response relative to DMSO goes with Cc1onc(-c2ccccc2)c1C(=O)N1CCC(C)CC1 ?
Result: 103

Query: What measured GFP response relative to DMSO goes with CC(C(=O)O)n1nc(-c2ccccc2)c2ccccc21 (stereo unspecified) ?
Result: 97.3

Query: What measured GFP response relative to DMSO goes with O=C1[C@@H]2C3C=CC(O3)[C@@H]2C(=O)N1c1ccccc1 ?
Result: 109

----------
Assay Name: modulators of CIT2-GFP expression in yeast, confirmation, S. cerevisiae, GFP fusion, cherry picks, mother/daughter gates (AID 2274)
Experimental Parameters: S. cerevisiae CIT2-GFP strain, flow cytometry, 3 h; at 10 µM; stronger effect = higher value
// GFP response, % of DMSO lookup, one value per entry
Write it as a number; the unit % goes unstated.

Please review the entries below; each comes with its answer.
c1ccc(Cn2ncc3ccccc32)cc1
97.8
COc1ccc(NC(=O)CCc2nc(-c3ccccc3F)no2)cc1
97.2
O=C1CC(SCc2nc3ccccc3[nH]2)C(=O)N1c1cccc(F)c1 (stereo unspecified)
103
COc1ccc(C(c2c(C)[nH]n(C(N)=S)c2=O)C(C#N)C#N)cc1 (stereo unspecified)
89.2

Query: What measured GFP response, % of DMSO goes with O=C(CNC(=O)c1ccncc1)N/N=C/c1cccc([N+](=O)[O-])c1 ?
Result: 99.7

Query: What measured GFP response, % of DMSO goes with CCOc1ccc(N/N=C(/C#N)C(N)=O)cc1 ?
Result: 161

Query: What measured GFP response, % of DMSO goes with Cc1ccc2c(c1)/C(=C/c1ccc(F)cc1)C(=O)N2 ?
Result: 95.8

Query: What measured GFP response, % of DMSO goes with COc1cc(NC(=O)c2cccc(F)c2)ccc1NC(=O)c1cc2ccccc2o1 ?
Result: 97.8

Query: What measured GFP response, % of DMSO goes with CC(=O)c1sc(NC(=O)c2ccco2)nc1-c1ccccc1 ?
Result: 110

Query: What measured GFP response, % of DMSO goes with Cc1nn(C(=O)c2ccco2)c(C)c1Sc1ccccc1 ?
Result: 98.6

Query: What measured GFP response, % of DMSO goes with O=[N+]([O-])c1cc(/C=N/O)ccc1Oc1ccccc1Cl ?
Result: 155

----------
// GFP response vs DMSO lookup, one value per entry
Assay Name: RPL19A-GFP modulators, yeast TOR pathway, confirmation, cell-based, S. cerevisiae, flow cytometry, cherry picks, mother/daughter gates (AID 2270)
Experimental Parameters: S. cerevisiae RPL19A-GFP strain, 3 h, at 10 µM, stronger effect = lower value, 100 = same GFP as DMSO wells
Write it as a number; the unit % goes unstated.

Please review the entries below; each comes with its answer.
O=C(OCC(=O)N1CCN(C(=O)c2ccco2)CC1)c1cc(-c2cccc(Br)c2)nc2ccccc12
80.3
COc1ccccc1NC(=O)Cn1nnc(-c2ccccc2NC(=O)c2ccco2)n1
95.9
CCCN(c1ccccc1F)S(=O)(=O)c1cc(-c2cc(C)no2)ccc1OC
95.6

Query: What measured GFP response vs DMSO goes with O=[N+]([O-])c1ccc(SCCc2ccncc2)cc1 ?
Result: 94.8

Query: What measured GFP response vs DMSO goes with COc1ccc(NC(=O)C2C3C=CC(C3)C2C(=O)NCc2ccco2)c(OC)c1 (stereo not given) ?
Result: 97.6

Query: What measured GFP response vs DMSO goes with COc1ccc2cc(-c3cc(C(=O)O)c4ccccc4n3)ccc2c1 ?
Result: 98.6

Query: What measured GFP response vs DMSO goes with Cc1ccc(NC(=O)c2ccccc2)cc1 ?
Result: 100

Query: What measured GFP response vs DMSO goes with Cc1ccc(N(C(=O)CCCC(=O)Nc2ccccn2)C(C(=O)NC2CCCC2)c2ccc(O)cc2)cc1C (stereo not given) ?
Result: 98.4

Query: What measured GFP response vs DMSO goes with O=C(O)c1ccc(N/N=C/c2c(F)cccc2Cl)cc1 ?
Result: 99.5

Query: What measured GFP response vs DMSO goes with CCOC(=O)CS(=O)(=O)c1nc(-c2ccccc2)cc(C(F)(F)F)n1 ?
Result: 101

----------
Assay Name: modulators of MEP2-GFP levels in yeast, confirmation, S. cerevisiae, flow cytometry GFP, cherry picks (AID 2272);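 note: ratio of well signal to plate DMSO mean so 100% equals DMSO level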
Experimental Parameters: S. cerevisiae MEP2-GFP strain, 3 h, at 10 µM, stronger effect = higher value
// GFP response vs DMSO lookup, one value per entry
Write it as a number; the unit % goes unstated.

COc1ccc(CN2CN(C(C)C)CSC2=S)cc1
146
COc1ccccc1/C=C/C(=O)c1ccc(Cl)cc1
97.8

Here is another molecule to look at.
Query: What measured GFP response vs DMSO goes with O=C(/C=C/c1ccc(O)cc1)c1ccc(O)cc1O ?
Result: 102

----------
Assay Name: RPL19A-GFP modulators, yeast TOR pathway, confirmation, cell-based, S. cerevisiae, flow cytometry, cherry picks, mother/daughter gates (AID 2270)
Experimental Parameters: S. cerevisiae RPL19A-GFP strain, 3 h, at 10 µM, stronger effect = lower value, 100 = same GFP as DMSO wells
// GFP response vs DMSO lookup, one value per entry
Write it as a number; the unit % goes unstated.

Please review the entries below; each comes with its answer.
Cc1c(Cc2ccccc2)c(NCCN(C)C)n2c(nc3ccccc32)c1C#N
116
COc1ccc(C2CC(c3ccccc3)=NN2S(=O)(=O)c2ccccc2)cc1 (configuration not stated)
101
COc1cc(NC(=O)c2cc3ccccc3o2)ccc1NC(=O)c1ccco1
99
COc1cccc(C(=O)Nc2ccc(C)cc2)c1
100
CCOC(=O)C1(Cc2ccccc2Cl)CCN(C(=O)CCn2ccnc2C)CC1
96.6

Query: What measured GFP response vs DMSO goes with Cc1ccc(NC(=O)CCCSc2nc3ccccc3[nH]2)cc1 ?
Result: 99.6

----------
// GFP response, % of DMSO lookup, one value per entry
Assay Name: modulators of CIT2-GFP expression in yeast, confirmation, S. cerevisiae, GFP fusion, cherry picks, mother/daughter gates (AID 2274)
Experimental Parameters: S. cerevisiae CIT2-GFP strain, flow cytometry, 3 h; at 10 µM; stronger effect = higher value
Write it as a number; the unit % goes unstated.

Please review the entries below; each comes with its answer.
O=C(NCCCSc1ccccc1)c1cc(Br)ccc1O
98.3
COCCn1c(=N)c(C(=O)NCc2ccco2)cc2c(=O)n3ccccc3nc21
100
O=C1c2ccsc2SCCN1Cc1ccc(F)cc1
100
Cc1ccc(S(=O)(=O)Nc2cc(Cl)c(O)c3ncccc23)cc1
97.8
O=C(N/N=C/c1ccc(OCCCF)cc1)c1cc(OCC(F)(F)F)ccc1OCC(F)(F)F
95.2
Oc1ccc(Br)cc1/C=N/Nc1ccccn1
112

Here is another compound to look at.
Query: What measured GFP response, % of DMSO goes with COc1ccc(NC(=O)COC(=O)c2ccco2)c([N+](=O)[O-])c1 ?
Result: 99.3

----------
Assay Name: LAP4-GFP expression modulators in yeast, confirmation, cell-based, cherry picks, flow cytometry, mother/daughter gates (AID 2271);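 note: ratio of sample to DMSO plate mean so 100% equals DMSO level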
Experimental Parameters: S. cerevisiae LAP4-GFP strain, 3 h, measured here: daughter cell gate response, at 10 µM, stronger effect = higher value, 100 means same as DMSO control
// GFP response relative to DMSO lookup, one value per entry
Write it as a number; the unit % goes unstated.

Please review the entries below; each comes with its answer.
Cc1ccc(NN2C(=O)C=C(c3ccc(Cl)cc3)C2=O)cc1
117
Cc1ccc(S(=O)(=O)CC#CCOC(=O)c2ccc([N+](=O)[O-])cc2)cc1
132
Cc1c(O)ccc(C(=O)CN2CCN(c3ccc(F)cc3)CC2)c1O
99
CCCN(Cc1nnc(-c2ccccc2Cl)o1)C(=O)c1cc([N+](=O)[O-])cc([N+](=O)[O-])c1
96

Query: What measured GFP response relative to DMSO goes with O=C(O)c1ccc(N/N=C/C(Br)=C/c2ccccc2)cc1 ?
Result: 130

Query: What measured GFP response relative to DMSO goes with CCOc1ccc(NC2=C(Cl)C(=O)N(Cc3ccccc3)C2=O)cc1 ?
Result: 96.5

Query: What measured GFP response relative to DMSO goes with O=C(Oc1oc(-c2ccco2)nc1C=Nc1ccccc1)c1ccco1 ?
Result: 147

Query: What measured GFP response relative to DMSO goes with O=C(c1ccccc1F)N1CCN(c2cccc(C(F)(F)F)c2)CC1 ?
Result: 101

Query: What measured GFP response relative to DMSO goes with Cc1cc(C)c(S(C)(=O)=O)c(S(=O)(=O)c2ccc(Cl)cc2)n1 ?
Result: 97.6

Query: What measured GFP response relative to DMSO goes with CCOc1cc(/C=N/Nc2nc(C)cc(=O)[nH]2)ccc1O ?
Result: 87.9
